- experimental-target: h12/15-LOX (Homo sapiens, UniProt P16050)
- Sequence (P16050 whole entry): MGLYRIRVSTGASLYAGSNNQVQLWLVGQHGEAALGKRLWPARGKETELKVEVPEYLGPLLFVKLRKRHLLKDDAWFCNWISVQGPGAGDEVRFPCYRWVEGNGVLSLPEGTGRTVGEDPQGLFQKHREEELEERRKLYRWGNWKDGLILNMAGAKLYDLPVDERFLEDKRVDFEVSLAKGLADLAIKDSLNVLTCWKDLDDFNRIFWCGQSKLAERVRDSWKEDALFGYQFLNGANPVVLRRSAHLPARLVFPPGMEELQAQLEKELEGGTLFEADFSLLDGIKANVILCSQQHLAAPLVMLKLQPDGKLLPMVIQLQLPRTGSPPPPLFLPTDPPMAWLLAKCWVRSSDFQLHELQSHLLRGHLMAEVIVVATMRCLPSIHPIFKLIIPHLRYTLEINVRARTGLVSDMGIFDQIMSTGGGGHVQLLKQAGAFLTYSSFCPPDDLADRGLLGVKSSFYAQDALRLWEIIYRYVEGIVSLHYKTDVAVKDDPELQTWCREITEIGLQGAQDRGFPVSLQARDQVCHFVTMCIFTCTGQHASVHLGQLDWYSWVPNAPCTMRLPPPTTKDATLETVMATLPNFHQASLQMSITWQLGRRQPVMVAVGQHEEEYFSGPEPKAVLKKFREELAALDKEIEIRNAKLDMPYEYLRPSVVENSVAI
- procedure-summary: Steady-state inhibition kinetics
measurement-type: pKi
For clarity, pKi is expressed as the negative log10 of concentration in mol/L.

Inquiry: Looking for the measured pKi of Cc1ccc(O)c(-c2cc(-c3ccccc3C)[nH]n2)c1 [Compound 99089] , can you help?
Reply text: 5.22
